- Tested on: Escherichia coli (E. coli—ATCC #8739)
- EXPERIMENT SUMMARY: Synergy test, microtiter plate high resolution MIC assay, bacterium
- Format: cell-based
- APPLIED CONDITIONS: Escherichia coli, ATCC8739, 24 h; E. coli 8739, M9GY medium, 1 day; read-out: QB: MIC of second component (B) acting alone
Collected MIC values appear next to each entry.
Give the quantity in µg/mL, number only.

Consider the following illustrative entries.
{"columns": ["SMILES CODE", "MIC, µg/mL"],
 "data": [
  ["O=P(O)(O)O[C@H]1[C@H](OP(=O)(O)O)[C@@H](OP(=O)(O)O)[C@H](OP(=O)(O)O)[C@@H](OP(=O)(O)O)[C@H]1OP(=O)(O)O", 5000],
  ["O=C(O)/C=C\\C(=O)O", 8000],
  ["COc1ccc(C(=O)O)cc1", 8000]
]}

Next:
Report MIC for CCC(=O)O tested on Escherichia coli (E. coli—ATCC #8739).
5000
